Recorded EC50, one value per entry.
# Tested on: Plasmodium falciparum
# MEASUREMENT DESCRIPTION: NOVARTIS: Inhibition of Plasmodium falciparum 3D7 (drug-susceptible) proliferation in erythrocyte-based infection assay
# Assay type: functional, organism-based
# ASSAY CONDITIONS: Plasmodium falciparum, 3D7

// sample CCCCNC(=O)c1ccc2c(c1)N=C(c1cccnc1)N(CCN1CCOCC1)C2 , its EC50 was > 1.25 µM

// sample Oc1ccccc1-c1nc(-c2ccccc2)nc(-c2ccc(Br)cc2)n1 , its EC50 was > 1.16 µM

// sample Cc1nn(-c2cc(N3CCOCC3)ccc2[N+](=O)[O-])c(=O)c2ccccc12 , its EC50 was > 0.995 µM

// sample CN(C)c1ccc(C2Nc3ccccc3NC3=C2C(=O)CC(C)(C)C3)cc1 (stereo unspecified) , its EC50 was > 12.5 µM

// sample N#Cc1cc(N2CC3CC(C2)c2cccc(=O)n2C3)c([N+](=O)[O-])cc1C#N (stereo unspecified) , its EC50 was > 12.5 µM

// sample Cc1ccc(S(=O)(=O)N=C(NS(=O)(=O)c2ccc(C)cc2)c2ccccc2)cc1 , its EC50 was > 11.2 µM
